Measured abundance fitness by item
B1: Poly(rC)-binding protein 1, residues 278 to 350; numbered along this chain, Q15365 (parent)
chain: TQTTHELTIPNNLIGCIIGRQGANINEIRQMSGAQIKIANPVEGSSGRQVTITGSAASISLAQYLINARLSSE

Variants of: B1
METHOD: abundance fitness (aPCA) (normalised: wild type 0, dead -1); higher = more abundant; growth selection in yeast, the domain comes from the species named
CONDITION_SUMMARY: Homo sapiens
Answer using only a numeral; do not append any unit.

Worked cases, answers included:
MUTANT: E73T
abundance fitness: -0.03
//
MUTANT: T3I
abundance fitness: -0.345
//
MUTANT: I38W
abundance fitness: -0.53
//
MUTANT: G15T
abundance fitness: -0.03
//
MUTANT: S71K
abundance fitness: -0.03

In: What value of abundance fitness has been recorded for this entry: R20L
Out: -0.035

In: What value of abundance fitness has been recorded for this entry: N40V
Out: -0.266

In: What value of abundance fitness has been recorded for this entry: T8N
Out: 0.081
